Cited source: a melting point compilation (Tetko et al.; mined from patent text by program, amines drawn as free bases though some values may be those of a salt)

measurementKind: melting point

compound	melting point
CC(=O)SCCCn1cc(C2=C(c3cn(C)c4ccccc34)C(=O)NC2=O)c2ccccc21	210 to 213 °C

# per-item lookup of melting point; items listed below
1. CC(=O)Nc1ncc(/C=C\c2ccc([N+](=O)[O-])cc2)s1
2. CC=CN1CC([N+](=O)[O-])=CN(C(C)c2ccc(Cl)nc2)C1(C)N (centres undefined)
3. CCCCCS(=O)(=O)NC(=O)CCCc1cc(OCCCC)nn1Cc1ccc(Cl)cc1Cl
4. O=c1oc2c3ccccc3ccc2c2occc12
5. O=[N+]([O-])CS(=O)(=O)c1c(F)c(F)cc(F)c1F
6. CN1C2CCC1CC(O)(c1ccc(F)cc1)C2 (centres undefined)
7. Cc1c(C(=O)NCc2ccccc2)nc2n1CCc1ccccc1C2OC1CCN(C)CC1 (centres undefined)
8. N=C(N)c1cccc(Cn2ccc3ncn(Cc4ccc5ccc(C(=N)N)cc5c4)c3c2=O)c1

-- reply
1. 221 to 223 °C
2. 148 to 150 °C
3. 121 to 122 °C
4. 198 to 200 °C
5. 86 to 87 °C
6. 169 °C
7. 161 °C
8. > 300 °C

# per-item lookup of melting point; items listed below
1. COC(=O)c1ccc(S(C)(=O)=O)c(C=NO)c1C
2. CC(C)(C)c1cc(SC2CCOC2=O)cc(C(C)(C)C)c1O (centres undefined)
3. CC(C)(C)OC(=O)N1CCC(c2ccc([N+](=O)[O-])cc2)CC1
4. O=C(Nc1ccccc1)OCc1cn(-c2cc3cc(C(=O)O)c(=O)[nH]c3cc2[N+](=O)[O-])cn1

-- reply
1. 123 to 129 °C
2. 98 °C
3. 60 to 62 °C
4. > 300 °C

---

Give measured melting point for each item. Keep answers brief.

Some solved cases for reference:
compound	melting point
CCOC(=O)C1=C(O)c2ccc3ccccc3c2S(=O)(=O)N1C	163 to 165 °C
O=C(Nc1ccc(N2CCCC2)nc1)c1cc2ccc(C(F)(F)F)nc2n1Cc1cccc(F)c1	204 to 205 °C
CC(=O)N1CCCN(CC2=Nc3cccc4c(=O)[nH]nc(c34)N2)CC1	191 to 193 °C
COc1cccc2c1OC(C(N)=O)(c1ccncc1CC(=O)OCc1ccccc1)C2 (stereo unspecified)	165 to 166 °C
FC(F)(F)c1ccc(-c2ccnc(Nc3cnc4ccccc4c3)c2)cc1	207 to 208 °C
NC[C@H]1CCCN1C(c1ccccc1)(c1ccccc1)c1ccccc1	100 °C

# per-item lookup of melting point; items listed below
1. CCOC(=O)NS(=O)(=O)c1ccc2c(c1)CCN(C(=O)N(C)C)CC2
2. CCCCCCCCCC(=O)OCc1cccn2c(=O)c(CCN3CCC(N4Cc5ccc(F)cc5O4)CC3)c(C)nc12
3. CC(C)(C)CC(C)(C)n1scc(Br)c1=O
4. COc1ccc2c(c1)C(=O)C(Cc1nccs1)CO2 (stereo unspecified)
5. Nc1nc(NCCc2ccccc2)nc(-c2cc(Cl)ccc2Cl)n1
6. CC(C)(Oc1ccc(CCC(O)c2ccc(-c3ccc(C(F)(F)F)cc3)s2)c(Cl)c1Cl)C(=O)O (stereo unspecified)
7. CNc1cc(Br)nc(S(=O)(=O)c2ccc([N+](=O)[O-])cc2)c1
8. COc1ccc(CC#N)cc1OC1CCCC1

-- reply
1: 140 to 141 °C; 2: 112 °C; 3: 133 to 142 °C; 4: 71 to 73 °C; 5: 217 to 218 °C; 6: 54 to 56 °C; 7: 191 to 192 °C; 8: 32 to 34 °C

---

Give measured melting point for each item. Keep answers brief.

Some solved cases for reference:
compound	melting point
O=c1c2ccccc2nnn1CCCCl	69 °C
BrC1Cn2cccc2Sc2ccccc21 (stereo unspecified)	115 to 116 °C
CCOC(=O)N1CCC(C(=O)c2ccc(F)cc2)(c2ccccc2)CC1	91.7 °C
O=S(=O)(Cl)c1ccc2ccc(Br)cc2c1	100 to 101 °C
O=C(O)C1CCSc2ccc(Cl)cc21 (stereo unspecified)	139 to 150 °C

// next item, melting point requested
For reference, reported melting point for CCC1CCCCN1C(=O)C=Cc1c(-c2cccc(Cl)c2)nn2ccccc12 (stereo unspecified) stands at 100 to 104 °C

---

Give measured melting point for each item. Keep answers brief.

Some solved cases for reference:
smilesEntry	measurementKind	valueReported
Cn1c(NCc2cccc(NC(=O)C=Cc3ccccc3Cl)c2)nc2ccccc21	melting point	188 to 191 °C
c1ccc(CCn2cc3c(ncn4nc(-c5ccco5)nc34)n2)cc1	melting point	268 to 270 °C
COc1cc(C(F)(F)F)sc1C(=O)O	melting point	131 to 132 °C
CCc1nc2nc3cc(Cl)ccc3nc2n1C(=O)C=C(C)C	melting point	170 to 172 °C

For reference, reported melting point for CC1(C)OC(=O)C(Oc2cccc(N)n2)=C1c1ccc(S(C)(=O)=O)cc1 stands at 165 to 166 °C

---

Give measured melting point for each item. Keep answers brief.

Some solved cases for reference:
compound	valueReported
O=C(Nc1ccc(C(=O)N2Cc3cccnc3Oc3ccccc32)cn1)c1ccccc1-c1ccccc1	107 to 114 °C
Cc1oc(-c2ccccc2)nc1COc1cccc(COc2ccc(CC(=O)O)cc2)c1	179 to 180 °C
O=Cc1c(Cl)cc(Cl)cc1-c1ccc(F)cc1	73 to 74 °C
O=C(O)Cn1cccc(NS(=O)(=O)Cc2ccccc2)c1=O	186 to 187 °C

# per-item lookup of melting point; items listed below
1. CCCCNC(=O)NS(=O)(=O)c1ccccc1S(=O)(=O)N(C)C(F)(F)C(F)F
2. CCOc1cc(OC)cc(OP(=O)(O)O)c1C(=O)C=Cc1ccc(OC)cc1
3. Clc1ccc2nc(CN3CCN(c4ccccc4)CC3)cn2c1
4. Cn1c(CN2CCOCC2)nc([N+](=O)[O-])c1C#N
5. COc1ccc(-c2nc(Cn3ccnn3)co2)cc1
6. OCC1OC(n2c(Cl)c(-c3ccsc3)c3cc(Cl)c(Cl)cc32)C(O)C1O (stereo not given)
7. CC1=C(c2ccc(O)cc2)C(=O)c2ccc(O)cc21
8. CC1(C)CCCC(C)(C)N1Cc1ccc2cc(NC(=O)c3ccc(-c4ccc(Cl)cc4)cc3)ccc2c1

-- reply
1: 146 to 152 °C; 2: 72 to 75 °C; 3: 128 to 130 °C; 4: 112 to 115 °C; 5: 126 to 127 °C; 6: 152 to 153 °C; 7: 138 to 146 °C; 8: 244 to 246 °C

# per-item lookup of melting point; items listed below
1. C/C(NCCCc1ccccc1)=C(\C#N)C(N)=S
2. C#CC(=O)NCCCCC
3. CC(C)c1nc2c(c(-c3ccc(F)cc3)c1CO)CCCC2(C)C
4. O=C(CNC(=O)c1ccc(Cl)cc1)c1ccsc1

-- reply
1: 125 to 126 °C; 2: 59 to 60.2 °C; 3: 146 to 149 °C; 4: 160 to 161 °C

# per-item lookup of melting point; items listed below
1. O=C1CC(CO)C(c2c(Cl)cccc2Cl)N1Cc1ccccc1 (stereo not given)
2. Clc1ccc(CN2CC=C(/C=C/c3ccc4[nH]ccc4c3)CC2)cc1
3. C[C@]12CC[C@]3(C)C(O)CC[C@H]3[C@@H]1CCC1=C2CC=C(O)C1 (stereo not given in full)
4. Nc1ccccc1C(=O)NN=Cc1c(O)ccc2ccccc12
5. O=C(Cl)c1cc(Oc2ccc(C(F)(F)F)cc2Cl)ccc1[N+](=O)[O-]
6. CCCSC1(C(F)(F)F)CN(C2CC2)C(=O)Nc2ccc(Cl)cc21 (stereo not given)
7. O=C(c1ccsc1)c1cccc(-c2c(O)c3ccc(Cl)cc3[nH]c2=O)c1
8. Nc1ccc(F)c(-c2ccncc2)c1F

-- reply
1: 122 to 126 °C; 2: 165 °C; 3: 86 to 90 °C; 4: 188 to 191 °C; 5: 118 to 120 °C; 6: 150 to 151 °C; 7: 287 to 290 °C; 8: 190 to 192 °C

# per-item lookup of melting point; items listed below
1. C[C@H]1C[C@@]2(N)CN(c3c(F)cc4c(=O)c(C(=O)O)cn5c4c3OC[C@@H]5C)C[C@@H]12
2. COc1cc(Nc2cn(Cc3ccccc3)c(=O)c3ccccc23)cc(OC)c1OC
3. CNc1nc(-c2ccccc2)c(-c2nc3ccccc3c(=O)n2-c2ccc(C(C)=O)cc2)s1
4. Cc1nc(-n2ccc(OCc3ccccc3)cc2=O)sc1C(=O)NCc1ccccc1

-- reply
1: 122 to 124 °C; 2: 162 to 164 °C; 3: 239 to 240 °C; 4: 219 to 220 °C

---

Give measured melting point for each item. Keep answers brief.

Some solved cases for reference:
compound	measurementKind	valueReported
N#CCC(O)(c1ccc(Br)cc1)c1ccc(-c2ccc(Br)cc2)cc1 (configuration not stated)	melting point	154 °C
Cc1cc(-c2nnn(C)n2)cc(C)c1OCCCC(O)c1cc2cccnc2[nH]1 (configuration not stated)	melting point	166 to 169 °C

# per-item lookup of melting point; items listed below
1. O=C1CC(c2cccc(O)c2)=Nc2ccc(N3CCCC3)cc21
2. CN1C(=O)Cc2cc(CBr)cnc21
3. O=C(C=Cc1ccccc1)CC(=O)c1ccccc1

-- reply
1: 364 to 367 °C; 2: 65 °C; 3: 108 °C
